molecular target: Recombinant human PKC-theta (His-tagged 362-706) (Homo sapiens, UniProt Q04759); construct: Recombinant human PKC-theta (His-tagged 362-706); His; assay: PKC-theta inhibition assay (HTRF KinEASE kit); format: biochemical; details: ATP 6.5 μM; STK substrate 525 nM; binned A to H; read-out: PKC-theta HTRF pIC50 (binned) (converted)
Sequence (Q04759 362-706): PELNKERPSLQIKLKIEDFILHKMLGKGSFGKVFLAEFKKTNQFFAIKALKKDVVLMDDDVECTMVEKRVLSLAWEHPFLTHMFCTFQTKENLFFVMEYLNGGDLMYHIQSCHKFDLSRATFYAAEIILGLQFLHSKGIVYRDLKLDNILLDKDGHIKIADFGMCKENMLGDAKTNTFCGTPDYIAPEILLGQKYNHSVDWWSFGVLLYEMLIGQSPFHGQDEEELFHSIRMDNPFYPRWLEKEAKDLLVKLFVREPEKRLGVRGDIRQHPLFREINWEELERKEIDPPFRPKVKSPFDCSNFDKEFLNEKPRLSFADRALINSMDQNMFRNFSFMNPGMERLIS
In this section, each of the molecules is paired with its reported IC50.
observation.type: IC50

> print(dat)
                                   molecule  observation.type             reading
1  CC1(C)C(=O)Nc2nccc(-c3cc(C(F)(F)F)cc(N4CCN[C@H]5COC[C@H]54)n3)c21              IC50  0.00316 to 0.01 µM
2  CC1(C)C(=O)Nc2nccc(-c3cc(C(F)(F)F)cc(N4CCNC(C(C)(C)O)C4)n3)c21 (stereo not shown)              IC50  0.00316 to 0.01 µM
3  C[C@H]1CNCCN1c1cc(F)cc(-c2ccnc3c2C(C)(C)C(=O)N3)c1              IC50    0.0316 to 0.1 µM
4  C[C@H]1CN(c2ccc(Cl)c(-c3ccnc4c3[C@](C)(O)C(=O)N4)c2)CCN1              IC50    0.0316 to 0.1 µM
